Target or test system: human delta-like ligand 3 (DLL3) on SHP77 cells (human) (UniProt Q9NYJ7)
Sequence (Q9NYJ7 27-618, stated change not applied): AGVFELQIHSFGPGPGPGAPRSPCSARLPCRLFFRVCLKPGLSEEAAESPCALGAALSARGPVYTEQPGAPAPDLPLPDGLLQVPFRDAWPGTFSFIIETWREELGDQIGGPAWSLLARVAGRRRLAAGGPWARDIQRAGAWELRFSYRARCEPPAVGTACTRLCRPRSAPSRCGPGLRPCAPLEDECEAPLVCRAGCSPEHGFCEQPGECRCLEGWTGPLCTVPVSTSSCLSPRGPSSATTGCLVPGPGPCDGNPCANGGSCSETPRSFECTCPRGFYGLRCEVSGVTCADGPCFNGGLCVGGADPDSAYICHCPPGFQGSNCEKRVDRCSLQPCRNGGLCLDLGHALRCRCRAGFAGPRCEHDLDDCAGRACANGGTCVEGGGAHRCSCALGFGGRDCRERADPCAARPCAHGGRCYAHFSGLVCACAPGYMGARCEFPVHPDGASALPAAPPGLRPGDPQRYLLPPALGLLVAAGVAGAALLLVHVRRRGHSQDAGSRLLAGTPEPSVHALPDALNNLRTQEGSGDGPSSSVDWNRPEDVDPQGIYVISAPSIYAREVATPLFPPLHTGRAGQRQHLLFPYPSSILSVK
Protocol text: FACS on SHP77 cells
Readout kind: MFI at 0.00128 nM (MFI)
Give the value, in units of MFI, as a plain number.

Field request: MFI at 0.00128 nM | item: Hab015VL4VH1b-hFc (scFv, part only; not given: VL-VH linker and human IgG1 Fc, V domains shown, not shown: another chain or arm of the molecule; a dimerising Fc or GST; small tags and cut ends) VL: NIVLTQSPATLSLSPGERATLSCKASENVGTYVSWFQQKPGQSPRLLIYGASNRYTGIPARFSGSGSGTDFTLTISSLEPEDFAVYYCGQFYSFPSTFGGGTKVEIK VH: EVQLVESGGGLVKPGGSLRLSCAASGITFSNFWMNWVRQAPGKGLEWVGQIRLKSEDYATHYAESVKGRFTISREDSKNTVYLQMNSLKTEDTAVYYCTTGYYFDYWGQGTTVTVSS
97

Field request: MFI at 0.00128 nM | item: Hab015VL4VH6a-hFc (scFv, part only; not given: scFv linker and human IgG1 Fc, V domains shown, not shown: another chain or arm of the molecule; a dimerising Fc or GST; small tags and cut ends) VL: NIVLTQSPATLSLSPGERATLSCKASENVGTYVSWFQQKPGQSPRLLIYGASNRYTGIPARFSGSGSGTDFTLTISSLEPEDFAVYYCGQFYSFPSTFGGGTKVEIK VH: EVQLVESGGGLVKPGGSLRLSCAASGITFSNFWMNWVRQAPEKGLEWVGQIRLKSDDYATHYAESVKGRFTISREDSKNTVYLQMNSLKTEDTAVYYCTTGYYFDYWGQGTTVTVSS
101

Field request: MFI at 0.00128 nM | item: Hab008L3H5-hFc (scFv, part only; not given: scFv linker and human IgG1 Fc, V domains shown, not shown: another chain or arm of the molecule; a dimerising Fc or GST; small tags and cut ends) VL: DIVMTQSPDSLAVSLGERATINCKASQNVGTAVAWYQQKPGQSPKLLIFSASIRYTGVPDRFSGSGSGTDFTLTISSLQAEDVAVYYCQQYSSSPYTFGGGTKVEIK VH: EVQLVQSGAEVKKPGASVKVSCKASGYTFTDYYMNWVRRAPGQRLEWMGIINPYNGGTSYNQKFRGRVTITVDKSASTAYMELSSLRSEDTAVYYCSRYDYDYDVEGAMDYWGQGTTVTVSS
117

Field request: MFI at 0.00128 nM | item: Hab015VL4VH1a-hFc (scFv, part only; not given: scFv linker and human IgG1 Fc, V domains shown, not shown: another chain or arm of the molecule; a dimerising Fc or GST; small tags and cut ends) VL: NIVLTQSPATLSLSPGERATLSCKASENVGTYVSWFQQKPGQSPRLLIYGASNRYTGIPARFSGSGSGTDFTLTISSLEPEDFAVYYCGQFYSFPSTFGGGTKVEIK VH: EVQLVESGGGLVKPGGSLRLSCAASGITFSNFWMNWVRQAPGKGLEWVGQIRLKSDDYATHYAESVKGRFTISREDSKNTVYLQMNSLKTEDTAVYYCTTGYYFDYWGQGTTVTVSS
99

Field request: MFI at 0.00128 nM | item: Hab008L1H5-hFc (scFv, part only; not given: VL-VH linker and human IgG1 Fc, V domains shown, not shown: another chain or arm of the molecule; a dimerising Fc or GST; small tags and cut ends) VL: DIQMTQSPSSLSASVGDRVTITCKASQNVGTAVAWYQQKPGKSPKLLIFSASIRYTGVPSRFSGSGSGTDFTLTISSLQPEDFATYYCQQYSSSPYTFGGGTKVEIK VH: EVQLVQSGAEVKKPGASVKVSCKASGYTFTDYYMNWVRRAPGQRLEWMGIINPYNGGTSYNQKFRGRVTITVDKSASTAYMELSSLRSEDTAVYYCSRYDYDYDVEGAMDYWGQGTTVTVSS
121

Field request: MFI at 0.00128 nM | item: Hab009VL3aVH1-hFc (Fc fusion, part only; not given: Linker and human IgG1 Fc, not shown: a dimerising Fc or GST) scFv, part: DIVMTQSPLSLPVTPGEPASISCRASQTISDYLHWYLQKSHQSPQLLIKYASQSISGVPDRFSGSGSGTDFTLKISRVEAEDVGVYYCQQGHSFPLTFGQGTKLEIKEVQLVQSGAEVKKPGASVKVSCKASGYTFTSYWMHWVRQAPGQRLEWMGTIYPGNSDTRYNQKFKDRVTITADTSASTAYMELSSLRSEDTAVYYCTRSYDYGDLDYWGQGTTVTVSS
105

Field request: MFI at 0.00128 nM | item: Hab006VL4VH1-hFc (scFv, part only; not given: scFv linker and human IgG1 Fc, V domains shown, not shown: another chain or arm of the molecule; a dimerising Fc or GST; small tags and cut ends) VL: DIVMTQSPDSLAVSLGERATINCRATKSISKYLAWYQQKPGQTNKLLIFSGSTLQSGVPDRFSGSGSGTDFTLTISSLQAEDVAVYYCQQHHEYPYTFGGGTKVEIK VH: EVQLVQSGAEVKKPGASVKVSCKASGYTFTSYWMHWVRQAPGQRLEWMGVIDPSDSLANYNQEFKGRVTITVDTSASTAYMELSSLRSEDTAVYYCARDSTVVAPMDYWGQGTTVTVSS
215

Field request: MFI at 0.00128 nM | item: Hab006VL4VH2-hFc (scFv, part only; not given: scFv linker and human IgG1 Fc, V domains shown, not shown: another chain or arm of the molecule; a dimerising Fc or GST; small tags and cut ends) VL: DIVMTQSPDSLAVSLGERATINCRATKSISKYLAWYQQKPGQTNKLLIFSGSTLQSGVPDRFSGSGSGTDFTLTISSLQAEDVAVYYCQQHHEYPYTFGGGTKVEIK VH: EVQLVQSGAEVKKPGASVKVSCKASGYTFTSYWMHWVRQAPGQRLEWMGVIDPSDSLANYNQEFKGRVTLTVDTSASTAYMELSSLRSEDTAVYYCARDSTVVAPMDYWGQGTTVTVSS
199

Field request: MFI at 0.00128 nM | item: Hab008L1H2a-hFc (scFv, part only; not given: VL-VH linker and human IgG1 Fc, V domains shown, not shown: another chain or arm of the molecule; a dimerising Fc or GST; small tags and cut ends) VL: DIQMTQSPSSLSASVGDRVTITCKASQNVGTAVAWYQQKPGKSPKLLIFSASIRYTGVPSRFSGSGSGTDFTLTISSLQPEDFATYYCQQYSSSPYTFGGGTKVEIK VH: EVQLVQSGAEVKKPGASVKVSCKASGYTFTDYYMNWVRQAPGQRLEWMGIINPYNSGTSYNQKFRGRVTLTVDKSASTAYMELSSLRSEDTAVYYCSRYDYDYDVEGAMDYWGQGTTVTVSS
119

Field request: MFI at 0.00128 nM | item: Hab009VL2aVH1-hFc (scFv, part only; not given: VL-VH linker and human IgG1 Fc, V domains shown, not shown: another chain or arm of the molecule; a dimerising Fc or GST; small tags and cut ends) VL: DIVMTQSPLSLPVTPGEPASISCRASQTISDYLHWYLQKPGQSPRLLIKYASQSISGVPDRFSGSGSGTDFTLKISRVEAEDVGVYYCQQGHSFPLTFGQGTKLEIK VH: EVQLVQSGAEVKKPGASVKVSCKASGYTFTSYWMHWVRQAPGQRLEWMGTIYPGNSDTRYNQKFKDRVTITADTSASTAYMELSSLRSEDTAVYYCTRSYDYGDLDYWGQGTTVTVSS
108
